# experimentNotes: viability of HCT116 without oncogenic beta-catenin – human colon tumor cells, pilot screen (AID 823);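 note: 0% = wells killed by 20 µM Hyamine and 100% = untreated DMSO cell wells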
# conditionLabel: HCT116 beta-catenin knockout viability, CellTiter-Glo, 60 h; at 10 µM; hits give low values
Inconclusive results are not listed.
measurementKind: viability (%)
Note: unit % is implicit; provide only the numeric part.

Q: Suppose we examine the compound Cc1cc(NC(=O)c2cccc(S(=O)(=O)N3CC(c4ccccc4)CC3=O)c2)no1 (stereo unspecified) ; what viability value has been reported?
A: 96.8

Q: Find the recorded viability belonging to CCCc1nnc2n1N=C(c1ccc(-c3cc(Cl)ccc3Cl)o1)CS2 and report it.
A: 97.8

Q: Please give the measured viability for this compound: CCCCN(C)CCNC(=O)Cn1ncc2c(=O)oc3ccc(C)cc3c21
A: 95.1

Q: # input compound: CC1CCc2nn(CC(=O)NCc3ccc4c(c3)OCO4)cc2C1 (stereo unspecified) ; wanted: its viability
A: 108

Q: # get_value(readout='viability', item= CC(=O)N(c1ccc(Br)cc1)C1C=CS(=O)(=O)C1 (stereo unspecified) )
A: 107

Q: What viability value was documented for this compound, COC(=O)C1C(=O)c2c([nH]c(C(=O)OC3CCCCCC3)c2C)CC1C (stereo unspecified) ?
A: 102

Q: I would be grateful if you could share the reported viability for N#CCn1nnc(-c2ccc3c(c2)OCO3)n1 .
A: 98.5

Q: Suppose we examine the compound CCCCC(NS(=O)(=O)c1ccc(OC)cc1)C(=O)O (stereo unspecified) ; what viability value has been reported?
A: 99.1

Q: Using the record for COc1ccc(OC)c(S(=O)(=O)N2CCN(c3c(C)cccc3C)CC2)c1 , report its viability.
A: 68

Q: Which viability is listed for COc1cccc(-c2nc3cc(C)ccc3o2)c1 ?
A: 87.2

Q: Endpoint output: viability of COc1ccc(C(=O)c2coc3ccc(O)c(CN4CCCCC4)c23)cc1 . Value?
A: 40.5
